Field: %-inhibition of LCK. Provide a value for each of the molecules that follow.
biological target: panel of more than 300 wild-type and mutant kinases (313 kinase panel) (Homo sapiens, UniProt P06239); assay: Kinase profiling in a biochemical assay panel (mobility shift assays and ELISA), %-inhibition at 1 μM; selectivity entropy; settings: kinase LCK; compound at 1 μM
Sequence (P06239 whole entry, change not shown): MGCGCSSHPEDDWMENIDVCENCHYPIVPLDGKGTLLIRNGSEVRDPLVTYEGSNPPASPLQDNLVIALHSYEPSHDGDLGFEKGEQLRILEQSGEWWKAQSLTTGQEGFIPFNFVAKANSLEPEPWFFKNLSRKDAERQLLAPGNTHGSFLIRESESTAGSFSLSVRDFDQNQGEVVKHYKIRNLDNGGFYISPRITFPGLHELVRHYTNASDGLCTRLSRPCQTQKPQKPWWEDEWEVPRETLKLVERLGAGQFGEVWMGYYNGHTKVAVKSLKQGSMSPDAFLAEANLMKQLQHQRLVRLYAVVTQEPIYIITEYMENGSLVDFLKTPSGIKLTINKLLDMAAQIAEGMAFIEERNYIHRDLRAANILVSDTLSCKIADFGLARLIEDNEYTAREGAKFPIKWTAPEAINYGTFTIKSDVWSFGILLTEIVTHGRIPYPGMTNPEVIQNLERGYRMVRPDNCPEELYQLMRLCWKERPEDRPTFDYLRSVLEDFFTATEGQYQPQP
Give bare numbers, in %.

Guide cases for %-inhibition of LCK, answers given:
CO[C@H]1C[C@@H]2CC[C@@H](C)[C@@](O)(O2)C(=O)C(=O)N2CCCC[C@H]2C(=O)O[C@H]([C@H](C)C[C@@H]2CC[C@@H](OC(=O)C(C)(CO)CO)[C@H](OC)C2)CC(=O)[C@H](C)/C=C(\C)[C@@H](O)[C@@H](OC)C(=O)[C@H](C)C[C@H](C)/C=C/C=C/C=C/1C
-2.22
O=S(=O)(c1cccc2cnccc12)N1CCCNCC1
-7.52
Cc1ccc(C(=O)Nc2ccc(CN3CCN(C)CC3)c(C(F)(F)F)c2)cc1C#Cc1cnc2cccnn12
103
N#CC[C@H](C1CCCC1)n1cc(-c2ncnc3[nH]ccc23)cn1
21

From here, focus on the item given below.
Task: Report %-inhibition of LCK for CO[C@H]1C[C@@H]2CC[C@@H](C)[C@@](O)(O2)C(=O)C(=O)N2CCCC[C@H]2C(=O)O[C@H]([C@H](C)C[C@@H]2CC[C@@H](OCCO)[C@H](OC)C2)CC(=O)[C@H](C)/C=C(\C)[C@@H](O)[C@@H](OC)C(=O)[C@H](C)C[C@H](C)/C=C/C=C/C=C/1C please.
Result: -2.67
